Biological target: C-C chemokine receptor type 4 (Homo sapiens)
Sequence (P51679 whole entry): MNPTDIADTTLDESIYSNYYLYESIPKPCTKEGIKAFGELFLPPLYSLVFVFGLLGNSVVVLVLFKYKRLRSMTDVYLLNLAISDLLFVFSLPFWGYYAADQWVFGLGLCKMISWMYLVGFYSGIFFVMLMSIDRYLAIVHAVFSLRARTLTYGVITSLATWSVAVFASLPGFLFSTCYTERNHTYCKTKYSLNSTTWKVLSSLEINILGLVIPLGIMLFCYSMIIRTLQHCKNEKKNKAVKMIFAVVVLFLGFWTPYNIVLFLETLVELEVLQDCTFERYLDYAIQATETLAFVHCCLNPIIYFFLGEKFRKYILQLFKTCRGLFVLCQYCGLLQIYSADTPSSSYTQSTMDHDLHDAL
Test: Inhibition of [125I]MDC binding to recombinant human C-C chemokine receptor type 4 (CCR4) expressed in murine pre-B cells
Assay type: cell-based
observable: IC50 (nM)
# number only, unit nM dropped from output

CN(C)CCCNC(=O)CN1C(=O)[C@@H](CC(=O)NCc2cccc3ccccc23)S[C@@H]1c1ccc(Cl)cc1Cl: 360

// recorded IC50 for O=C(C[C@H]1S[C@H](c2ccc(Cl)cc2Cl)N(CCN2CCOCC2)C1=O)NCc1cccc2ccccc12 : 9000

// recorded IC50 for Cc1c(Cl)cccc1CNC(=O)C[C@H]1S[C@H](c2ccc(Cl)cc2Cl)N(CC(=O)NCCCN2CCCCC2)C1=O : 140

// recorded IC50 for O=C(C[C@H]1S[C@H](c2ccc(Cl)cc2Cl)N(CC(=O)NCCCN2CCOCC2)C1=O)NCc1ccc(Cl)cc1Cl (stereo in doubt; 72) : 3000

// recorded IC50 for O=C(C[C@H]1S[C@H](c2ccc(Cl)cc2Cl)N(CC(=O)NCCCN2CCOCC2)C1=O)NCc1ccc(Cl)cc1Cl (stereo in doubt; 66) : 2000
